Every entry's value here was drawn from patent US20260116991A1.

- subject of test: T1, human GPC3 on CHO-K1-human GPC3 cells (CHOK1-hGPC3.2B5) (human, UniProt P51654 25-554)
- T1 construct: whole, on cells
- procedure details: FACS, CHOK1-hGPC3.2B5 cells;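 further: flow cytometry of humanized antibodies binding to the cells over one hour in the cold, read as cell mean fluorescence intensity, with EC50 obtained by curve fitting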
Assignment: determine reported pEC50 for the given binders.
Hey, just a heads up that pEC50 is the negative log base 10 of the concentration in molar.

INPUT: Name the recorded pEC50 of the binder listed here: hAb007LH2L1b (antibody, human IgG1, V domains shown, Humanized F3.81.19; VH H2 + VL L1b; expressed as human IgG1) VH: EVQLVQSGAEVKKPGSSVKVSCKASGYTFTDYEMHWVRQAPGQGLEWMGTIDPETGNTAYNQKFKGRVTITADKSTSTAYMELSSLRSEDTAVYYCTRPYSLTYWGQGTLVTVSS VL: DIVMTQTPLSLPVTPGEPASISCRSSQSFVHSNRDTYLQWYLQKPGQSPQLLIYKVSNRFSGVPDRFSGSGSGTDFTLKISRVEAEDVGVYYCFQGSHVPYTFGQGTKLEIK
OUTPUT: 8.21

INPUT: Consider the binder hAb001H2L1a (antibody, human IgG1, V domains shown, Humanized F2.169.2; VH H2 + VL L1a; expressed as human IgG1) VH: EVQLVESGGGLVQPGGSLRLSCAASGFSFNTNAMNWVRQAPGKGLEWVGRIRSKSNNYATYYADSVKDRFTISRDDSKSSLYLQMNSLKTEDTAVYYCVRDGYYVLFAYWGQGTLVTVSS VL: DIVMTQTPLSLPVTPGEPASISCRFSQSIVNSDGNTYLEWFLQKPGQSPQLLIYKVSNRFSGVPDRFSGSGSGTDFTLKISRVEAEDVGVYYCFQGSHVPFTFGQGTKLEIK and give its recorded pEC50.
OUTPUT: 8.21

INPUT: Entry hAb003LH2L1 (antibody, human IgG1, V domains shown, Humanized F2.154.1; VH H2 + VL L1; expressed as human IgG1) VH: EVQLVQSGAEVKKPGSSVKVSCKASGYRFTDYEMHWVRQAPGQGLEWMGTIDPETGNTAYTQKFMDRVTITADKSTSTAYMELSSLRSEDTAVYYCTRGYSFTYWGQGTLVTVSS VL: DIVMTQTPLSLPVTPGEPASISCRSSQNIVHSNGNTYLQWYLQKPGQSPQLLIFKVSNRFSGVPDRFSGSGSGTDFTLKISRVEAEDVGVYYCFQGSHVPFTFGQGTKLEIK needs its pEC50 filled in; supply it.
OUTPUT: 8.97

INPUT: Quote pEC50 reported for hAb006LH1L1 (antibody, human IgG1, V domains shown, Humanized F3.38.7; VH H1 + VL L1; expressed as human IgG1) VH: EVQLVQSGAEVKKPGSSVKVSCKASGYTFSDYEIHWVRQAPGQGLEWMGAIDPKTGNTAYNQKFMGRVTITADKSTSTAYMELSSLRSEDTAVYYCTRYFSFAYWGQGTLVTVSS VL: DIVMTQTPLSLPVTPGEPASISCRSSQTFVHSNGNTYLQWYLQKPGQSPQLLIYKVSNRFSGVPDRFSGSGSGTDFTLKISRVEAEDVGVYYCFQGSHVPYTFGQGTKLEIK please.
OUTPUT: 9.04

INPUT: Look up pEC50 of hAb005LH1L1b (antibody, human IgG1, V domains shown, Humanized F3.54.12; VH H1 + VL L1b; expressed as human IgG1) VH: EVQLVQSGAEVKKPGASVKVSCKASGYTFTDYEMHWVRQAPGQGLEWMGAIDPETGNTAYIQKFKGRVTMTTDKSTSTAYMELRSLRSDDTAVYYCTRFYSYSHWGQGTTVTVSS VL: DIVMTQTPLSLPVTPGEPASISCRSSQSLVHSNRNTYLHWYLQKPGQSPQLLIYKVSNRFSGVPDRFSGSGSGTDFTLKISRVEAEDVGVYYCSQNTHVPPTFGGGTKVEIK and report it.
OUTPUT: 9.31
